Hello, the source for this data is patent US20070174009A1, in case you need it.

test system: AP1; experiment: siRNA transfection array, AP1 EGFP reporter, HepG2 cells; type: cell-based, human; conditions: AP1 reporter, 48 h culture
Measured Relative intensity ratio of EGFP fluorescence against Scramble II Duplex, AP1 values are reported for all entries that follow.
Please reply with the bare figure in % and do not write the unit itself.

Solved entries:
RARG siRNA: siRNA SEQ ID NO: 68 (Dharmacon), targets human retinoic acid receptor gamma M57707 (GCCCUACAUGUUCCCAAGG; chemistry not given here) :: 90.9
RARB1 siRNA: siRNA SEQ ID NO: 66 (Dharmacon), targets human RARB transcript variant 1 NM_000965 (GUGAACUGGCCACCAAGUG; chemistry not given here) :: 90.7
HSF-1 siRNA: siRNA SEQ ID NO: 59 (Dharmacon), targets human HSF1 NM_005526 (GGAGUGCAUGGACUCCAAG; chemistry not given here) :: 115.7

Note to self: Relative intensity ratio of EGFP fluorescence against Scramble II Duplex, AP1 recorded for p53 siRNA: siRNA SEQ ID NO: 76 (Dharmacon), targets human p53 AF307851 (GACUCCAGUGGUAAUCUAC; chemistry not given here) was 94.0

Note to self: Relative intensity ratio of EGFP fluorescence against Scramble II Duplex, AP1 recorded for CREB siRNA: siRNA SEQ ID NO: 55 (Dharmacon), targets human CREB M27691 (CAGGAGUCAGUGGAUAGUG; chemistry not given here) was 125.7

Note to self: Relative intensity ratio of EGFP fluorescence against Scramble II Duplex, AP1 recorded for HSF-2 siRNA: siRNA SEQ ID NO: 60 (Dharmacon), targets human HSF2 M65217 (GUUCCACACAGUAGGACUG; chemistry not given here) was 101.9

Note to self: Relative intensity ratio of EGFP fluorescence against Scramble II Duplex, AP1 recorded for c-Jun siRNA: siRNA SEQ ID NO: 54 (Dharmacon), targets human c-jun J04111 (GGUGGCACAGCUUAAACAG; chemistry not given here) was 97.2

Note to self: Relative intensity ratio of EGFP fluorescence against Scramble II Duplex, AP1 recorded for GR siRNA: siRNA SEQ ID NO: 58 (Dharmacon), targets human glucocorticoid receptor alpha M10901 (CUCGAAUGAGGACUGCAAG; chemistry not given here) was 108.1

Note to self: Relative intensity ratio of EGFP fluorescence against Scramble II Duplex, AP1 recorded for SRF siRNA: siRNA SEQ ID NO: 70 (Dharmacon), targets human serum response factor J03161 (CAGCACCUAGCACCUCUAC; chemistry not given here) was 77.1

Note to self: Relative intensity ratio of EGFP fluorescence against Scramble II Duplex, AP1 recorded for RARA siRNA: siRNA SEQ ID NO: 65 (Dharmacon), targets human retinoic acid receptor alpha NM_000964 (GUACUGCCGACUGCAGAAG; chemistry not given here) was 114.0

---

Measured Relative intensity ratio of EGFP fluorescence against Scramble II Duplex, ERE values are reported for all entries that follow.
tested on: ERE; assay: siRNA transfection array, ERE EGFP reporter, HepG2 cells; type: cell-based, human; details: ERE reporter, 48 h culture
Answer shape: numeric part, then the unit.

Solved entries:
ER siRNA: siRNA SEQ ID NO: 57 (Dharmacon), targets human estrogen receptor M12674 (CCUUCUAGAAUGUGCCUGG; chemistry not given here) :: 97.0%
STAT1a siRNA: siRNA SEQ ID NO: 71 (Dharmacon), targets human transcription factor ISGF-3 M97935 (GGAAGACCCAAUCCAGAUG; chemistry not given here) :: 110.1%

In the following, a different substance is considered.
Note to self: Relative intensity ratio of EGFP fluorescence against Scramble II Duplex, ERE recorded for RARA siRNA: siRNA SEQ ID NO: 65 (Dharmacon), targets human retinoic acid receptor alpha NM_000964 (GUACUGCCGACUGCAGAAG; chemistry not given here) was 104.7%
